assayProtocol: Chemical stability of the compound in phosphate buffer saline in presence of 5% EtOH after 6 hrs by Radio-HPLC analysis
Format: physicochemical
testParameters: phosphate buffered saline with 5% EtOH; read-out: Stability
recordedMetric: remaining at 6 h

Dear colleague, please send me the reported remaining at 6 h for N=C(N)NCCC[C@H]1NC(=O)CNC(=O)[C@@H](CC(=O)O)NC(=O)[C@H](Cc2ccc(O)cc2)NC(=O)[C@@H](CCCCNC(=O)CCCC(=O)Nc2ccc(C3=NN=C(c4ccccn4)[C@@H]4CCC[C@@H](OCC[18F])CC[C@@H]34)nc2)NC1=O when you can.
> 95%
